src = PubChem BioAssay (NCI)

Each entry below carries its reported TGI.
Tested on: MALME-3M melanoma
Experiment: NCI tumour cell line growth inhibition, 48 h

Solved cases below.
| Smiles input | TGI |
| --- | --- |
| N#CCCC1(CCC#N)CCCCCCCCC(CCC#N)(CCC#N)C(=O)C1=O | > 100 µM |
| CSc1ccc(NC(=S)NN(C)C)cc1 | > 10 µM |

Reported TGI for COc1ccc(/C(C#N)=C/c2ccc(OC)c(OC)c2)cc1 : what is it?
> 100 µM

---

System: MALME-3M melanoma
Assay: NCI tumour cell line growth inhibition, 48 h
Parameter measured: TGI

Solved cases below.
| Smiles input | Recorded value |
| --- | --- |
| CCc1cccc(C(C)C)c1N1C(=O)C(=O)C(c2nc3ccccc3s2)C(=O)C1=O | > 45.3 µM |
| Cc1cc(C)c2c(n1)S(=O)(=O)N(CCCN1CCN(c3cccc(C(F)(F)F)c3)CC1)c1c-2nn(C)c1C | > 100 µM |

Now take the following molecule into account.
Reported TGI for Cn1c2ccccc2c2c(=O)[nH]c(=O)[nH]c21 : what is it?
> 100 µM
